# Test target: T1, EsCas13d, nuclease-dead (Eubacterium siraeum, UniProt B0MS50, R295A;H300A;R849A;H854A)
# T1 sequence: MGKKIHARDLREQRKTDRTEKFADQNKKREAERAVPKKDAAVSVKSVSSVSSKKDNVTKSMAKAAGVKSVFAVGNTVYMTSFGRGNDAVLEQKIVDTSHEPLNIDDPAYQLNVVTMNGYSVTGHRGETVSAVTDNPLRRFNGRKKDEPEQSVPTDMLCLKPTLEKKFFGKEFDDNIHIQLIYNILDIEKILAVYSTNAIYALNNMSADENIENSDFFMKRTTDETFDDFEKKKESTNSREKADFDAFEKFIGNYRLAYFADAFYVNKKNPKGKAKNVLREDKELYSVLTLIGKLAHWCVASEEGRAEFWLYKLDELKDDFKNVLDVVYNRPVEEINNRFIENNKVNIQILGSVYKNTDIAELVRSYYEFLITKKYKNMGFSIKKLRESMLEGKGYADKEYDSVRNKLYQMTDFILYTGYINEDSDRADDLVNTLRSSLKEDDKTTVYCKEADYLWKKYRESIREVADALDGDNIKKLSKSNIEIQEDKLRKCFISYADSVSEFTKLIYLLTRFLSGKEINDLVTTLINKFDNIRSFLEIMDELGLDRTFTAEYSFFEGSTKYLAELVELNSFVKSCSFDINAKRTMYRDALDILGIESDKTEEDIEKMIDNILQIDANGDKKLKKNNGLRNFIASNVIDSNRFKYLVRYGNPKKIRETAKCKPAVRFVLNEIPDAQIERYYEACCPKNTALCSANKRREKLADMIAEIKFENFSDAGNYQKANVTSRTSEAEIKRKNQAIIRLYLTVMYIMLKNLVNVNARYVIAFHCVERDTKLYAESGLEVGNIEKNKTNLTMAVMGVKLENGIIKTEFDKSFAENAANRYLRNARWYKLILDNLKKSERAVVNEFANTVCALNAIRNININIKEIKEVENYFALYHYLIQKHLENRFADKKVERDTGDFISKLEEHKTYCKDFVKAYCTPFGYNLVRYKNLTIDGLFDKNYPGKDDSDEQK
# Assay explanation: crRNA (strand 1, pre-loaded); Mg2+; 40 mM Tris-HCl pH 7.5, 150 mM NaCl, 6 mM MgCl2, 1 mM DTT, 0.1% Tween-20, 0.2 mg/ml BSA; 25 C; 10 min per concentration, then washed
# Condition info: tags: His6-TwinStrep-SUMO cleaved; N-terminal SNAP kept (SNAP-Surface 488); label: 3' end held by stalled T7 RNA polymerase
pKd: −log10 of the molar value.
Quantity: pKd

>  <Binder>
target 1 insA 3' of 21,insC 3' of 1 (mixed) RNA 1: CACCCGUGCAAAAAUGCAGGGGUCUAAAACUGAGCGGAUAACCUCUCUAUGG RNA 2: GGGAAUGGAUCCACAUCUACGAAUUCGUACCAAUAGAGAGGUUAUCCGCUCACCCGAGAUCGGAAGAGCACACGU

>  <Quantity>
pKd

>  <Test value>
7.86

$$$$
>  <Binder>
target 2 MT 5'PFS GUC 3'PFS UAG (mixed) RNA 1: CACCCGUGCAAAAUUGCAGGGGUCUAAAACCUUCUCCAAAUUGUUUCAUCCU RNA 2: GGGAAUGGAUCCACAUCUACGAAUUCGUCAGGAUGAAACAAUUUGGAGAAGUAGAGAUCGGAAGAGCACACGU

>  <Quantity>
pKd

>  <Test value>
7.85

$$$$
>  <Binder>
target 1 A9U,G17U (mixed) RNA 1: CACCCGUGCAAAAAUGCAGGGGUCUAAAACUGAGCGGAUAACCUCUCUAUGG RNA 2: GGGAAUGGAUCCACAUCUACGAAUUCGUACCAUAUAGAGGUUUUCCGCUCACCGAGAUCGGAAGAGCACACGU

>  <Quantity>
pKd

>  <Test value>
7.52

$$$$
>  <Binder>
target 1 MT 5'PFS GGA 3'PFS UGA (mixed) RNA 1: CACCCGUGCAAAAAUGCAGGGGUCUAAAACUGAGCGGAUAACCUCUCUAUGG RNA 2: GGGAAUGGAUCCACAUCUACGAAUUCGGACCAUAGAGAGGUUAUCCGCUCAUGAAGAUCGGAAGAGCACACGU

>  <Quantity>
pKd

>  <Test value>
7.79

$$$$
>  <Binder>
target 1 insC 3' of 9,insG 3' of 1 (mixed) RNA 1: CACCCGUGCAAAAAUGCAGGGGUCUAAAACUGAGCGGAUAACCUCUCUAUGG RNA 2: GGGAAUGGAUCCACAUCUACGAAUUCGUACCAUAGAGAGGUUACUCCGCUCAGCCGAGAUCGGAAGAGCACACGU

>  <Quantity>
pKd

>  <Test value>
7.91

$$$$
>  <Binder>
target 2 MT 5'PFS AAU 3'PFS CCA (mixed) RNA 1: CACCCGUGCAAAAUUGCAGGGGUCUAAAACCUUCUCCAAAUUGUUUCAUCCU RNA 2: GGGAAUGGAUCCACAUCUACGAAUUCAAUAGGAUGAAACAAUUUGGAGAAGCCAAGAUCGGAAGAGCACACGU

>  <Quantity>
pKd

>  <Test value>
7.62

$$$$
